# Measured Target: full-length human BTN3A1 on transfected cells (human) (UniProt O00481)
# Sequence (O00481 30-513): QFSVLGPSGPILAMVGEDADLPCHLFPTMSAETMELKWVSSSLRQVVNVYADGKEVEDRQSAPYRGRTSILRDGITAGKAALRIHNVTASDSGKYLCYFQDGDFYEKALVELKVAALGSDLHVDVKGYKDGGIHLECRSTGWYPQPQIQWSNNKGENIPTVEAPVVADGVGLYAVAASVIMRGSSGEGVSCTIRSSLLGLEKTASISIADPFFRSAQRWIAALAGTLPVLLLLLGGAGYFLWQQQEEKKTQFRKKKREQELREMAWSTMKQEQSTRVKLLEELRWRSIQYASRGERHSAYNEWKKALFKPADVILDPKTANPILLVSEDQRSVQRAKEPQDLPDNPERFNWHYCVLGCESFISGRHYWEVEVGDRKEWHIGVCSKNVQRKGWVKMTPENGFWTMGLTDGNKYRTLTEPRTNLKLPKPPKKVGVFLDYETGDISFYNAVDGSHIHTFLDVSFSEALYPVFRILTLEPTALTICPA
# Assay Method Text: flow cytometry, γδTCR tetramer-PE on BTN3A1-transfected NIH-3T3 cells treated with isotype IgG1κ (black number); SAv control 25
Measured MFI of PE (GFP+ gate) values are reported for all entries that follow.
Please give only the number in your answer, with no unit.

Check out these entries, answers already filled in.
Using the record for G115 Vγ9Vδ2+ TCR tetramer with combined His85γ-Ala and Glu52δ-Ala mutations (TCR, from a related filing, V domains shown) V domain 1: AIELVPEHQTVPVSIGVPATLRCSMKGEAIGNYYINWYRKTQGNTMTFIYRAKDIYGPGFKDNFQGDIDIAKNLAVLKILAPSERDEGSYYCACDTLGMGGEYTDKLIFGKGTRVTVEP V domain 2: AGHLEQPQISSTKTLSKTARLECVVSGITISATSVYWYRERPGEVIQFLVSISYDGTVRKESGIPSGKFEVDRIPETSTSTLTIANVEKQDIATYYCALWEAQQELGKKIKVFGPGTKLIITD , state its measured MFI of PE (GFP+ gate).
38

For the binder soluble G115 Vγ9Vδ2+ TCR His85γ-Ala (TCR, from a related filing, V domains shown) V domain 1: AIELVPEHQTVPVSIGVPATLRCSMKGEAIGNYYINWYRKTQGNTMTFIYREKDIYGPGFKDNFQGDIDIAKNLAVLKILAPSERDEGSYYCACDTLGMGGEYTDKLIFGKGTRVTVEP V domain 2: AGHLEQPQISSTKTLSKTARLECVVSGITISATSVYWYRERPGEVIQFLVSISYDGTVRKESGIPSGKFEVDRIPETSTSTLTIANVEKQDIATYYCALWEAQQELGKKIKVFGPGTKLIITD , give its reported MFI of PE (GFP+ gate).
33

Please give measured MFI of PE (GFP+ gate) of the following entry: G115 Vγ9Vδ2+ TCR tetramer Lys108γ-Ala (TCR, from a related filing, V domains shown) V domain 1: AIELVPEHQTVPVSIGVPATLRCSMKGEAIGNYYINWYRKTQGNTMTFIYREKDIYGPGFKDNFQGDIDIAKNLAVLKILAPSERDEGSYYCACDTLGMGGEYTDKLIFGKGTRVTVEP V domain 2: AGHLEQPQISSTKTLSKTARLECVVSGITISATSVYWYRERPGEVIQFLVSISYDGTVRKESGIPSGKFEVDRIPETSTSTLTIHNVEKQDIATYYCALWEAQQELGAKIKVFGPGTKLIITD
25

---
Consider the binder soluble G115 Vγ9Vδ2+ TCR Glu52δ-Ala (TCR, from a related filing, V domains shown) V domain 1: AIELVPEHQTVPVSIGVPATLRCSMKGEAIGNYYINWYRKTQGNTMTFIYRAKDIYGPGFKDNFQGDIDIAKNLAVLKILAPSERDEGSYYCACDTLGMGGEYTDKLIFGKGTRVTVEP V domain 2: AGHLEQPQISSTKTLSKTARLECVVSGITISATSVYWYRERPGEVIQFLVSISYDGTVRKESGIPSGKFEVDRIPETSTSTLTIHNVEKQDIATYYCALWEAQQELGKKIKVFGPGTKLIITD and give its recorded MFI of PE (GFP+ gate).
32

The measured values listed here are drawn from patent US20250179144A1.
